- experimental.target: human GLP-1 receptor (human, UniProt P43220)
- assay.remarks: cell-based or functional assay
No end group written: not given here.
Label rule, in plain words: GLP-1 receptor activation relative to Val^8-GLP-1(7-37)OH of 2 relative potency and up is met, under 2 relative potency is not met.

- binder: "HVEGTFTSDWSSYLEEQAAKEFIAWLIKGRG [Val^8-Trp^16-Glu^22-Ile^33-GLP-1(7-37)OH]"
  classification: "met"
- binder: "HVEGTFTSDVSSYLEGQALKEFIAWLVKGRG [Val^8-Leu^25-GLP-1(7-37)OH]"
  classification: "not met"
- binder: "HVEGTFTSDVSSWLEEQAAKEFIAWLVKGRG [Val^8-Trp^19-Glu^22-GLP-1(7-37)OH]"
  classification: "met"
- binder: "HVEGTYTSDVSSYLEGQAAKEFIAWLVKGR-NH2 [Val^8-Tyr^12-GLP-1(7-36)NH2]"
  classification: "not met"
- binder: "HVEGTFTSDYSSYLEGQAAKEFIAWLVKGRG [Val^8-Tyr^16-GLP-1(7-37)OH]"
  classification: "met"
- binder: "HVEGTFTSDFSSYLEEQAAKEFIAWLVKGRG [Val^8-Phe^16-Glu^22-GLP-1(7-37)OH]"
  classification: "met"
